The measurements presented in this section are drawn from the NIST ThermoML archive (doi:10.1021/acs.jced.5b00105).

measurement-context: 308.15 K; 100 kPa; Liquid; Concentric cylinders viscometry
measured-attribute: viscosity (mPa·s)

Here is how some molecules turned out for viscosity.
CCC1CCCCC1 [ethylcyclohexane] :: 0.702
CC(C)CC(C)(C)C [2,2,4-trimethylpentane] :: 0.449

(I) CCCCC1CCCCC1 [butylcyclohexane]
(II) CC1CCCCC1 [methylcyclohexane]
Input: Please indicate which has the smaller reported viscosity: I , or II . Respond with the label that goes with your answer.
Output: II
(II: 0.615 mPa·s, I: 1.031 mPa·s)

====

method: refractive index (Na D-line) (dimensionless)
measurement-context: 323.15 K; 100 kPa; Liquid
measured-attribute: refractive index

CC1CCCCC1 :: 1.4078
CCCCC1CCCCC1 :: 1.4268
CC(C)CC(C)(C)C :: 1.376
CCC1CCCCC1 :: 1.4187
